- assayedTarget: BK2 receptor (Oryctolagus cuniculus)
- Construct: when administered to an intact animal; from tissue; host or cells: whole rabbit (systemic arterial blood pressure), LPS-pretreated
- Sequence (Q28642 whole entry): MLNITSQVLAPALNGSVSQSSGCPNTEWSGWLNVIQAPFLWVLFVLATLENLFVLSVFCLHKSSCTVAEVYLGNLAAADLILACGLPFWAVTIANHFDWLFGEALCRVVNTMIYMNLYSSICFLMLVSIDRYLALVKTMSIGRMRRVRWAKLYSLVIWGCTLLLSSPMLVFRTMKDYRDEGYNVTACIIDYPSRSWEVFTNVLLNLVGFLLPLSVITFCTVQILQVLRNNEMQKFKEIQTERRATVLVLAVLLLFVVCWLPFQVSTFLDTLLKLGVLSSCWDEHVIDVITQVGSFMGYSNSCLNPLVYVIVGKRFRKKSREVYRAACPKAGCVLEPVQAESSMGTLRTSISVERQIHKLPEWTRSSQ
- methodDescription: blood pressure response to BK2 agonist in LPS-pretreated rabbits
- Assay type: in vivo, rabbit
- Parameters: key: +: indicates complete blockade of the blood pressure response to the appropriate agonist; +/-: indicates partial blockade; -: indicates no observable effect at the dose indicated
- conditionSummary: 10 μg kg^-1 min^-1; rabbits given LPS (10 μg) 20 hours before
Square brackets hold non-standard residues; d marks the D form. Peptide text beside a SMILES is read from it. Oic = O=C(O)[C@@H]1C[C@@H]2CCCC[C@@H]2N1; Hyp = O=C(O)[C@@H]1C[C@@H](O)CN1; dTic = O=C(O)[C@H]1Cc2ccccc2CN1; 2Thi = N[C@@H](Cc1cccs1)C(=O)O
outcomeMeasure: OBSERVED ANTAGONIST ACTIVITY BK2

[Q] Look up OBSERVED ANTAGONIST ACTIVITY BK2: N=C(N)NCCC[C@@H](N)C(=O)N[C@@H](CCCNC(=N)N)C(=O)N1CCC[C@H]1C(=O)N1C[C@H](O)C[C@H]1C(=O)NCC(=O)N[C@@H](Cc1ccccc1)C(=O)N[C@@H](CO)C(=O)N1Cc2ccccc2C[C@@H]1C(=O)N1[C@H](C(=O)O)C[C@@H]2CCCC[C@@H]21 [CP-0267] (HELM PEPTIDE1{[dR].R.P.[Hyp].G.F.S.[O=C([C@H]1Cc2ccccc2CN1[*:1])[*:2]].[O=C(O)[C@@H]1C[C@@H]2CCCC[C@@H]2N1[*:1]]}$$$$V2.0)
[A] +/-

[Q] Let us now turn to N=C(N)NCCC[C@@H](N)C(=O)N[C@@H](CCCNC(=N)N)C(=O)N1CCC[C@H]1C(=O)N1C[C@H](O)C[C@H]1C(=O)NCC(=O)N[C@@H](Cc1cccs1)C(=O)N[C@@H](CO)C(=O)N1Cc2ccccc2C[C@@H]1C(=O)N1[C@H](C(=O)O)C[C@@H]2CCCC[C@@H]21 [CP-0345] (H-[dR]RP[Hyp]G[2Thi]S[dTic][Oic]-OH; N-terminus and C-terminus assumed)
[A] +

[Q] Let us now turn to CC(C)C[C@H](NC(=O)[C@@H](Cc1ccccc1)NC(=O)[C@H](CS)NC(=O)[C@H](Cc1ccccc1)NC(=O)CNC(=O)[C@@H]1C[C@@H](O)CN1C(=O)[C@@H]1CCCN1C(=O)[C@H](CCCNC(=N)N)NC(=O)[C@H](N)CCCNC(=N)N)C(=O)N[C@@H](CCCNC(=N)N)C(=O)O [CP-0126] (HELM PEPTIDE1{[dR].R.P.[Hyp].G.F.C.[dF].L.R}$$$$V2.0)
[A] +

[Q] Let us now turn to CC(C)C[C@H](NC(=O)[C@@H]1CCCN1C(=O)[C@H](CO)NC(=O)[C@H](Cc1ccccc1)NC(=O)CNC(=O)[C@@H]1CCCN1C(=O)[C@@H]1CCCN1C(=O)[C@H](CCCNC(=N)N)NC(=O)[C@@H](N)CCCCN)C(=O)O [CP-0298, reference compound]
[A] -

###

- assayedTarget: BK2 receptor (Cavia porcellus, UniProt O70526)
- Construct: tested for activity on guinea pig ileum in vitro on the standard tissue bath/strain gauge system; from tissue; host or cells: guinea pig ileum
- Sequence (O70526 1-372): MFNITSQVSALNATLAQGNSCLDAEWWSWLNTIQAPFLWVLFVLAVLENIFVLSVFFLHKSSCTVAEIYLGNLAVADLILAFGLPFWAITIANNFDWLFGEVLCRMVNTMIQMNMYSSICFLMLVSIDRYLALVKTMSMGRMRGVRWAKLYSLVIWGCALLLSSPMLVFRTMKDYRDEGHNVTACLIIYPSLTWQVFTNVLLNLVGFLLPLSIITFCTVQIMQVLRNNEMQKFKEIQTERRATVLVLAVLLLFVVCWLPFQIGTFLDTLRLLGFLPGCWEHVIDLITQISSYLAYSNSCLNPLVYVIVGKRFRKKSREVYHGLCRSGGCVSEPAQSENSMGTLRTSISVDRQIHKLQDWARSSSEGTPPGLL
- methodDescription: guinea-pig ileum (GPI) in vitro, antagonism of BK
- Assay type: cell-based
- conditionSummary: Table B; read-out: pA2 GUINEA PIG ILEUM (converted)
Peptide text beside a SMILES is read from it.
outcomeMeasure: Kb (nM)
Dear colleague, please return just the value in nM, with no unit written.

[Q] Look up Kb: CC(C)C[C@H](NC(=O)[C@@H](Cc1ccccc1)NC(=O)[C@H](CO)NC(=O)[C@H](Cc1ccccc1)NC(=O)CNC(=O)[C@H](CS)NC(=O)[C@@H]1CCCN1C(=O)[C@H](CCCNC(=N)N)NC(=O)[C@H](N)CCCNC(=N)N)C(=O)N[C@@H](CCCNC(=N)N)C(=O)O [CP-0143] (HELM PEPTIDE1{[dR].R.P.C.G.F.S.[dF].L.R}$$$$V2.0)
[A] 200

[Q] Let us now turn to CC(C)C[C@H](NC(=O)[C@@H](Cc1ccccc1)NC(=O)[C@H](CO)NC(=O)[C@H](Cc1ccccc1)NC(=O)CNC(=O)[C@@H]1C[C@@H](O)CN1C(=O)[C@@H]1CCCN1C(=O)[C@H](CCCNC(=N)N)NC(=O)[C@H](N)CS)C(=O)N[C@@H](CCCNC(=N)N)C(=O)O [CP-0149] (HELM PEPTIDE1{[dC].R.P.[Hyp].G.F.S.[dF].L.R}$$$$V2.0)
[A] 200

[Q] Let us now turn to CC(C)C[C@H](NC(=O)[C@@H](Cc1ccccc1)NC(=O)[C@H](CO)NC(=O)[C@H](Cc1ccccc1)NC(=O)CNC(=O)[C@@H]1C[C@@H](O)CN1C(=O)[C@@H]1CCCN1C(=O)[C@H](CCCNC(=N)N)NC(=O)[C@@H](N)CS)C(=O)N[C@@H](CCCNC(=N)N)C(=O)O [CP-0140] (HELM PEPTIDE1{C.R.P.[Hyp].G.F.S.[dF].L.R}$$$$V2.0)
[A] 200

[Q] Let us now turn to CC(C)C[C@H](NC(=O)[C@@H](Cc1ccccc1)NC(=O)[C@H](CO)NC(=O)[C@H](Cc1ccccc1)NC(=O)CNC(=O)[C@@H]1C[C@@H](O)CN1C(=O)[C@@H]1CCCN1C(=O)[C@H](CS)NC(=O)[C@H](N)CCCNC(=N)N)C(=O)N[C@@H](CCCNC(=N)N)C(=O)O [CP-0141] (HELM PEPTIDE1{[dR].C.P.[Hyp].G.F.S.[dF].L.R}$$$$V2.0)
[A] 794

[Q] Let us now turn to CC(C)C[C@H](NC(=O)[C@@H](Cc1ccccc1)NC(=O)[C@H](CO)NC(=O)[C@H](CS)NC(=O)CNC(=O)[C@@H]1C[C@@H](O)CN1C(=O)[C@@H]1CCCN1C(=O)[C@H](CCCNC(=N)N)NC(=O)[C@H](N)CCCNC(=N)N)C(=O)N[C@@H](CCCNC(=N)N)C(=O)O [CP-0144] (HELM PEPTIDE1{[dR].R.P.[Hyp].G.C.S.[dF].L.R}$$$$V2.0)
[A] 398
